species on record: Rattus norvegicus; assay: Inhibition of rat recombinant geranylgeranyltransferase type I expressed in Escherichia coli assessed as residual enzyme activity for geranylgeranylation of K-Ras4B at 50 uM incubated for 30 mins in presence of [3H]GGPP by scintillation counting assay relative to control
EXPERIMENTAL READOUT: Activity (%)

RECORD SMILES: Cc1ccc(S(=O)(=O)N2C[C@@H](C(=O)O)[C@H](Sc3ccc(Cl)cc3)C[C@H]2c2ccc3c(c2)OCO3)cc1
UNIT SPEC: %
Activity: 90.9
//
RECORD SMILES: Cc1ccc(S(=O)(=O)N2[C@@H](c3ccc(Cl)cc3)C(C(=O)O)=CC[C@H]2c2cccc(Cl)c2)cc1
UNIT SPEC: %
Activity: 60.4
//
RECORD SMILES: CCCCCCS[C@@H]1C[C@@H](c2ccccc2)N(S(=O)(=O)c2ccc(C)cc2)C[C@H]1C(=O)O
UNIT SPEC: %
Activity: 77.5
//
RECORD SMILES: C=CCS[C@@H]1C[C@@H](c2ccc(OC)cc2)N(S(=O)(=O)c2ccccc2C)C[C@H]1C(=O)O
UNIT SPEC: %
Activity: 65.1
//
RECORD SMILES: CCCS[C@@H]1C[C@@H](c2cccc(Cl)c2)N(S(=O)(=O)c2ccc(C)cc2)C[C@H]1C(=O)O
UNIT SPEC: %
Activity: 78.8
//
RECORD SMILES: CCOc1ccc([C@@H]2CC=C(C(=O)O)[C@H](c3cccc(C)c3)N2S(=O)(=O)c2ccc(C)cc2)cc1
UNIT SPEC: %
Activity: 65.3
//
RECORD SMILES: COc1ccc(S[C@@H]2C[C@@H](c3ccc(Cl)cc3)N(S(=O)(=O)c3ccccc3C)C[C@H]2C(=O)O)cc1
UNIT SPEC: %
Activity: 85.6
//
RECORD SMILES: Cc1ccc(S[C@@H]2C[C@@H](c3ccccc3F)N(S(=O)(=O)c3ccc(C)cc3)C[C@H]2C(=O)O)cc1
UNIT SPEC: %
Activity: 80.4
//
RECORD SMILES: Cc1ccc([C@@H]2CC=C(C(=O)O)[C@H](c3ccc(F)cc3)N2S(=O)(=O)c2ccccc2)cc1
UNIT SPEC: %
Activity: 68.1
//
RECORD SMILES: CCCCCCS[C@@H]1C[C@@H](c2ccc(C)cc2)N(S(=O)(=O)c2ccccc2C)C[C@H]1C(=O)O
UNIT SPEC: %
Activity: 69.9
//
RECORD SMILES: CC(C)(C)c1ccc([C@H]2C(C(=O)O)=CC[C@@H](c3ccc(Cl)cc3)N2S(C)(=O)=O)cc1
UNIT SPEC: %
Activity: 60.4
//
RECORD SMILES: Cc1ccc(S(=O)(=O)N2[C@@H](c3cccc(Br)c3)C(C(=O)O)=CC[C@H]2c2ccc(F)cc2)cc1
UNIT SPEC: %
Activity: 72.2
//
RECORD SMILES: Cc1ccc(S(=O)(=O)N2[C@@H](c3ccc(Cl)cc3)C(C(=O)O)=CC[C@H]2c2ccc(C#N)cc2)cc1
UNIT SPEC: %
Activity: 73.1
//
RECORD SMILES: Cc1ccc(S(=O)(=O)N2[C@@H](c3ccc(Cl)cc3)C(C(=O)O)=CC[C@H]2c2ccccc2)cc1
UNIT SPEC: %
Activity: 69.7
